Every entry's value here was drawn from patent US20250092065A1.

System: HTT mRNA
Method Description: RT-qPCR splicing assay, HTT mRNA canonical (CJ) and alternative (AJ) junction
Assay type: cell-based, human
Condition: Homo sapiens, HTT canonical junction mRNA, RT-qPCR; read-out: HTT CJ (decrease in CJ mRNA levels, IC50)
Experimental: Compounds described herein were used to modulate RNA transcript abundance in cells. The expression of a target mRNA was measured by detecting the formation of an exon-exon junction in the canonical transcript (CJ). A compound mediated exon-inclusion event was detected by observing an increase in formation of a new junction with an alternative exon (AJ). Real-time qPCR assays were used to detect these splicing switches and interrogate the potency of various compounds towards different target genes. […]
Reported IC50 values for the following compounds.

Please review the entries below; each comes with its answer.
>>> recorded_measurement("Cn1cc2cc(-c3ccc4nc(N5CC[C@@H](NC6CC6)C5)ccc4n3)c(O)c(F)c2n1 (single isomer, unassigned)")
"< 100 nM"
>>> recorded_measurement("C[C@H]1CN(c2ccc3nc(-c4cc5cn(C)nc5cc4O)ncc3c2)C[C@H](C)N1")
"1000 to 10000 nM"
>>> recorded_measurement("Cn1cc2cc(-c3ccc4nc(N5CC[C@@H](NC6(C)CC6)C5)ccc4n3)c(O)c(F)c2n1")
"< 100 nM"

Now for a further compound.
QUERY: I would be grateful if you could share the reported IC50 for C[C@H]1C[C@@H](c2ccc3nc(-c4cc5cn(C)nc5cc4O)ccc3n2)CCN1 .
RESULT: < 100 nM
